- experimental-target: Cytochrome P450 11B1, mitochondrial (Homo sapiens, UniProt P15538)
- Sequence (P15538 whole entry): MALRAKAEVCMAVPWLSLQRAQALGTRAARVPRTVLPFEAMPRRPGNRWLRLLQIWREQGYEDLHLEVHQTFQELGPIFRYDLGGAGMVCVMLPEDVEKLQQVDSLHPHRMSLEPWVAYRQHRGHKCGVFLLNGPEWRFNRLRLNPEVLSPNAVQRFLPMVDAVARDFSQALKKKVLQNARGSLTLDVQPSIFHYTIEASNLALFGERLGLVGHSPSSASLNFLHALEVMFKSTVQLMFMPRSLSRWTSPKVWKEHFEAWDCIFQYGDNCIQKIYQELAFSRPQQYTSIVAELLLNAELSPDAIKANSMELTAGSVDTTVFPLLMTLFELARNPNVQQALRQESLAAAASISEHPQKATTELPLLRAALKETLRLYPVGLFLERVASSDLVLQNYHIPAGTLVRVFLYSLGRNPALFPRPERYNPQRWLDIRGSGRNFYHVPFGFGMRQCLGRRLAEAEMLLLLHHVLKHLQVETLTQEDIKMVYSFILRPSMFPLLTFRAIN
- measurement-description: Inhibition of CYP11B1 (unknown origin) expressed in Chinese hamster V79MZ cells using [1,2-3H]-11-deoxycorticosterone as substrate at 500 nM preincubated for 60 mins followed by substrate addition measured after 25 mins by HPLC analysis relative to control
- Format: cell-based
quantity-name: inhibition at 0.5 µM (%)
Answer format: numeric, % implied, no suffix.

Known inhibition at 0.5 µM results, listed for orientation:
INSERT INTO results (molecule, result_value) VALUES
  ('N#Cc1ccc(C(c2ccc(C#N)cc2)n2cncn2)cc1', 16.4),
  ('O=c1c2ccccc2[nH]c2ccc(Cn3ccnc3)cc12', 40.7),
  ('CC(C)(C(=O)c1cccnc1)c1cccnc1', 98);

# get_value(readout='inhibition at 0.5 µM', item= "O=c1c2ccccc2[nH]c2c(Cn3ccnc3)cccc12" )
97.5

* * *

- experimental-target: Cytochrome P450 11B2, mitochondrial (Homo sapiens, UniProt P19099)
- Sequence (P19099 whole entry): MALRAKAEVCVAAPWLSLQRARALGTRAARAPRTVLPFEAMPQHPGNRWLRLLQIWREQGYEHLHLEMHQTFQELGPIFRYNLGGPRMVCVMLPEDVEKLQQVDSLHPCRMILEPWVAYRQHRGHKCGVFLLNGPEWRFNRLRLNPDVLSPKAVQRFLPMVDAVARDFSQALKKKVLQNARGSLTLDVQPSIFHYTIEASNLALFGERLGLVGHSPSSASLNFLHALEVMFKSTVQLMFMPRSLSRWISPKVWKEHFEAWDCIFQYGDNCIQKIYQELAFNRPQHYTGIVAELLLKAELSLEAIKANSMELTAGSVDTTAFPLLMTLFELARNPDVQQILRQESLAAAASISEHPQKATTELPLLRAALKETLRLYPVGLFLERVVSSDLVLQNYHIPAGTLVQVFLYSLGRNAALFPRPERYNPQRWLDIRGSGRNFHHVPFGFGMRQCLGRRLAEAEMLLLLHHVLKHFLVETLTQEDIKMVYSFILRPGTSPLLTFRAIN
- measurement-description: Inhibition of CYP11B2 (unknown origin) expressed in Chinese hamster V79MZ cells using [1,2-3H]-11-deoxycorticosterone as substrate at 500 nM preincubated for 60 mins followed by substrate addition measured after 50 mins by HPLC analysis relative to control
- Type: cell-based
# key: entry, value: inhibition at 0.5 µM
# value in %; strip the unit string

Reference set, count: 3
INSERT INTO assay_data (compound, quantity_name, result_value) VALUES
  ('O=c1c2ccccc2[nH]c2c(Cn3ccnc3)cccc12', 'inhibition at 0.5 µM', 40.8),
  ('CC(C)(C(=O)c1cccnc1)c1cccnc1 [METYRAPONE]', 'inhibition at 0.5 µM', 95),
  ('N#Cc1ccc(C(c2ccc(C#N)cc2)n2cncn2)cc1 [LETROZOLE]', 'inhibition at 0.5 µM', 25.6);

Entry "O=c1c2ccccc2[nH]c2ccc(Cn3ccnc3)cc12" has what inhibition at 0.5 µM?
3.4

* * *

- experimental-target: Cytochrome P450 11B1, mitochondrial (Homo sapiens)
- measurement-description: Inhibition of CYP11B1 (unknown origin) expressed in Chinese hamster V79MZ cells using [1,2-3H]-11-deoxycorticosterone as substrate preincubated for 60 mins followed by substrate addition measured after 25 mins by HPLC analysis
- Format: cell-based
quantity-name: IC50 (nM)
The figure you give is taken to be in nM; do not add the unit.

Can you share its IC50? I mean this compound: "O=c1c2ccccc2[nH]c2c(Cn3ccnc3)cccc12"
21.2

* * *

- experimental-target: Aromatase (Homo sapiens, UniProt P11511)
- Sequence (P11511 whole entry): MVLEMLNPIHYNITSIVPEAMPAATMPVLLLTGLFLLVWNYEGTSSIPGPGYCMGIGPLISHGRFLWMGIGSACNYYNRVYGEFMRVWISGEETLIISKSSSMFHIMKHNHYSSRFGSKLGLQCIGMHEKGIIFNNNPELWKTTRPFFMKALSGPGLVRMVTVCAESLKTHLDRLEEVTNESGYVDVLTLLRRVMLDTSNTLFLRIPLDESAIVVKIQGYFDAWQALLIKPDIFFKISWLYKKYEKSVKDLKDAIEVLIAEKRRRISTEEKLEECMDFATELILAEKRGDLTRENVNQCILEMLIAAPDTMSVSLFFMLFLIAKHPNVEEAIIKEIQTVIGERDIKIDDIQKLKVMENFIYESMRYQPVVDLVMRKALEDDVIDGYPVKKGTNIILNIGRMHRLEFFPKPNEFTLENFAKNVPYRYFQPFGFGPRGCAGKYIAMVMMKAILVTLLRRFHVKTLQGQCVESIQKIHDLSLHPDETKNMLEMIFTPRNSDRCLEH
- measurement-description: Inhibition of CYP19 isolated from microsomal fraction of human term placental tissue using [1beta-3H] androstenedione as substrate at 2 uM preincubated for 5 mins followed by enzyme addition measured after 20 mins by beta scintillation counting analysis relative to control
The following compounds are listed with their measured inhibition at 2 µM values.
Unit % implied. Number only.

INSERT INTO measurements (compound, unit_abbrev, result_value) VALUES
  ('O=c1c2ccccc2[nH]c2c(Cn3ccnc3)cccc12', '%', 95.5);

What inhibition at 2 µM value was documented for this compound, CC(C)(C(=O)c1cccnc1)c1cccnc1 [METYRAPONE] ?
0

How about this compound: "O=c1c2ccccc2[nH]c2ccc(Cn3ccnc3)cc12"
0

N#Cc1ccc(C(c2ccc(C#N)cc2)n2cncn2)cc1 [LETROZOLE] ?
99
